Assay type: physicochemical
REPORTED CONDITIONS: CD at 220 nm, protein 7 μM, 50 mM Tris–HCl pH 7.5, 150 mM NaCl, 0.1% β‐mercaptoethanol

>  <MOLECULE>
N245–382: truncated C‐terminal domain of the HCoV‐229E N protein, extended C‐terminal tail that includes residue 382 (protein, left off: His6, C-terminal, state not stated) QKPRWKRQPNDDVTSNVTQCFGPRDLDHNFGSAGVVANGVKAKGYPQFAELVPSTAAMLFDSHIVSKESGNTVVLTFTTRVTVPKDHPHLGKFLEELNAFTREMQQHPLLNPSALEFNPSQTSPATAEPVRDEVSIET

>  <melting temperature (Tm)>
above 70 °C

$$$$
>  <MOLECULE>
N245–376: truncated C‐terminal domain of the HCoV‐229E N protein, extended C‐terminal tail that includes residue 376 (protein, left off: His6, C-terminal, state not stated) QKPRWKRQPNDDVTSNVTQCFGPRDLDHNFGSAGVVANGVKAKGYPQFAELVPSTAAMLFDSHIVSKESGNTVVLTFTTRVTVPKDHPHLGKFLEELNAFTREMQQHPLLNPSALEFNPSQTSPATAEPVRD

>  <melting temperature (Tm)>
36.7 °C

$$$$
>  <MOLECULE>
N245–389: truncated C‐terminal domain of the HCoV‐229E N protein, extended C‐terminal tail that includes residue 389 (protein, left off: His6, C-terminal, state not stated) QKPRWKRQPNDDVTSNVTQCFGPRDLDHNFGSAGVVANGVKAKGYPQFAELVPSTAAMLFDSHIVSKESGNTVVLTFTTRVTVPKDHPHLGKFLEELNAFTREMQQHPLLNPSALEFNPSQTSPATAEPVRDEVSIETDIIDEVN

>  <melting temperature (Tm)>
above 70 °C

$$$$
